Provenance of the data: patent US8937067B2

target: hPK-M2 (Homo sapiens, UniProt P14618); experiment: Luminescent pyruvate kinase-luciferase coupled assay (KinaseGlo); format: biochemical; details: KinaseGlo; % activation at 57 μM of compound; read-out: hPK, M2 Max. Res.
Sequence (P14618 whole entry): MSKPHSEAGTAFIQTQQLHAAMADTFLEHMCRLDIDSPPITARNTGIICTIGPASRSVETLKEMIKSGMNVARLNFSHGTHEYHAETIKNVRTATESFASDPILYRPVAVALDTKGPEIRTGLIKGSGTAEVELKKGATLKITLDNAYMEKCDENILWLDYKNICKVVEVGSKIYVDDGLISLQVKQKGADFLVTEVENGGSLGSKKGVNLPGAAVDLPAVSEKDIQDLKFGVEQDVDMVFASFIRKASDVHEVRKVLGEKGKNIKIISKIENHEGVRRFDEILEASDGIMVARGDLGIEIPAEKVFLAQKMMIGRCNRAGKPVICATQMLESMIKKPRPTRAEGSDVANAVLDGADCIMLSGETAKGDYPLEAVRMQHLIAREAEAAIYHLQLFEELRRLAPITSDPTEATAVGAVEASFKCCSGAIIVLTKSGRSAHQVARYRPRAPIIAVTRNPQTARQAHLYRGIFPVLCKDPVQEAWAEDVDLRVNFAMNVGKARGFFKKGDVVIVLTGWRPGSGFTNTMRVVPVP
Field: activation at 57 µM. Provide a value for each of the compounds that follow.
Numbers only, in %.

INSERT INTO measurements (compound, unit_info, reported) VALUES
  ('CC(C)c1cc2c(s1)c1cnn(Cc3ccccc3F)c(=O)c1n2C [Compound 69]', '%', 106),
  ('O=S(=O)(NCCCCCCNS(=O)(=O)c1c(F)cccc1F)c1ccc2c(c1)OCCO2 [Compound 36]', '%', 110),
  ('O=S(=O)(NC1CCN(S(=O)(=O)c2ccc3c(c2)OCCO3)CC1)c1c(F)cccc1F [Compound 40]', '%', 99.6);

As a next step, examine the compound that follows.
The reported activation at 57 µM of the compound O=S(=O)(c1ccccc1)N1CCN(S(=O)(=O)c2ccc3c(c2)OCCO3)CC1 [Compound 15] was 108

---

target: hPK-M2 (Homo sapiens, UniProt P14618); test: Luminescent pyruvate kinase-luciferase coupled assay (KinaseGlo); type: biochemical; conditions: luciferase-coupled assay; read-out: AC50
measurement.name: AC50 (nM)
Numbers only, in nM.

INSERT INTO assay_data (chem_smiles, unit_info, reported) VALUES
  ('O=S(=O)(c1ccc2c(c1)OCCO2)N1CCN(S(=O)(=O)c2c(F)cccc2F)CC1', 'nM', 65),
  ('O=S(=O)(c1ccc2c(c1)OCCO2)N1CCN(S(=O)(=O)c2cccc[n+]2[O-])CC1', 'nM', 254),
  ('O=S(=O)(c1ccc2c(c1)OCCO2)N1CCN(S(=O)(=O)c2c(F)ccc(O)c2F)CC1', 'nM', 52),
  ('O=S(=O)(N[C@H]1CC[C@@H](NS(=O)(=O)c2c(F)cccc2F)CC1)c1ccc2c(c1)OCCO2', 'nM', 37100),
  ('COc1ccc(S(=O)(=O)N2CCN(S(=O)(=O)c3ccc4c(c3)OCCO4)CC2)cc1', 'nM', 63);

Below is a list of compounds. For each, state its recorded AC50.
1. O=S(=O)(c1ccc2c(c1)OCCO2)N1CCCN(S(=O)(=O)c2c(F)cccc2F)CC1
2. COc1ccc(Cn2ncc3c4sc(C)cc4n(C)c3c2=O)cc1F
3. O=S(=O)(c1ccc2c(c1)OCCCO2)N1CCN(S(=O)(=O)c2c(F)cccc2F)CC1
4. O=S(=O)(c1ccc2c(c1)OCCO2)N1CCN(S(=O)(=O)c2ccc3c(c2)OCCO3)CC1
5. O=S(=O)(N[C@H]1CC[C@H](NS(=O)(=O)c2c(F)cccc2F)CC1)c1ccc2c(c1)OCCO2

1. 866
2. 225
3. 103
4. 270
5. 2110

---

molecular target: hPK-M2 (Homo sapiens, UniProt P14618); test: Luminescent pyruvate kinase-luciferase coupled assay (KinaseGlo); type: biochemical; conditions: luminescent pyruvate kinase-luciferase coupled assay (KinaseGlo), tables; read-out: hPK, M2 AC50
measurement.name: AC50

Example compounds with recorded AC50:
INSERT INTO results (compound, measurement_name, reported) VALUES
  ('Cn1c2cc(C=O)sc2c2cnn(Cc3ccccc3F)c(=O)c21 [Compound 84]', 'AC50', '16 nM'),
  ('O=S(=O)(c1ccc(F)cc1)N1CCN(S(=O)(=O)c2ccc3c(c2)OCCO3)CC1 [Compound 6]', 'AC50', '94 nM'),
  ('O=S(=O)(c1c(F)cccc1F)C1CCN(S(=O)(=O)c2ccc3c(c2)OCCO3)CC1 [Compound 20]', 'AC50', '254 nM');

Below is a list of compounds. For each, state its recorded AC50.
1. COc1cccc(Cn2ncc3c4sc([S+](C)[O-])cc4n(C)c3c2=O)c1 (stereo not drawn) [Compound 148]
2. COc1cc(F)c(S(=O)(=O)N2CCN(S(=O)(=O)c3ccco3)CC2)c(F)c1 [Compound 145]
3. Cc1cc2c(s1)c1cnn(Cc3ccc(F)cc3)c(=O)c1n2C [Compound 105]
4. O=S(=O)(c1ccc2c(c1)OCO2)N1CCN(S(=O)(=O)c2c(F)cccc2F)CC1 [Compound 24]
5. COc1ccc(Cn2ncc3c4sc(C)cc4n(C)c3c2=O)cc1 [Compound 111]
6. O=C1CN(S(=O)(=O)c2ccc3c(c2)OCCO3)CCN1S(=O)(=O)c1c(F)cccc1F [Compound 50]
7. Cc1ccc(N[S+](=O)([O-])c2ccc3c(c2)CCC(=O)N3)cc1C [Compound 150]
8. CCn1c2cc(C)sc2c2cnn(Cc3ccccc3F)c(=O)c21 [Compound 90]

92 nM
183 nM
57 nM
191 nM
37 nM
2420 nM
163 nM
5900 nM

---

target: hPK-M2 (Homo sapiens, UniProt P14618); test: Luminescent pyruvate kinase-luciferase coupled assay (KinaseGlo); assay type: biochemical; conditions: KinaseGlo; % activation at 57 μM of compound; read-out: hPK, M2 Max. Res.
measurement.name: activation at 57 µM (%)
Answers are plain numbers, in %.

Example compounds with recorded activation at 57 µM:
INSERT INTO measurements (compound, reported) VALUES
  ('C[C@@H]1CN(S(=O)(=O)c2c(F)cccc2F)CCN1S(=O)(=O)c1ccc2c(c1)OCCO2 [Compound 46]', 98.8),
  ('CCCc1cc(F)c(S(=O)(=O)N2CCN(S(=O)(=O)c3ccc4c(c3)OCCO4)CC2)cc1F [Compound 12]', 69.2),
  ('Cc1cc2c(s1)c1cnn(Cc3ccc(F)c(F)c3F)c(=O)c1n2C [Compound 116]', 69.2),
  ('O=S(=O)(c1c(F)cccc1F)C1CCN(S(=O)(=O)c2ccc3c(c2)OCCO3)CC1 [Compound 20]', 104),
  ('O=S(=O)(c1c(F)cccc1F)N1CCN(S(=O)(=O)c2c(F)cccc2F)CC1 [Compound 22]', 74.3);

Below is a list of compounds. For each, state its recorded activation at 57 µM.
1. Cn1ccc2cc(S(=O)(=O)N3CCN(S(=O)(=O)c4c(F)cccc4F)CC3)ccc21 [Compound 28]
2. Cc1cc2c(s1)c1cnn(Cc3ccccc3Cl)c(=O)c1n2C [Compound 106]
3. COc1ccc(S(=O)(=O)N2CCN(S(=O)(=O)c3c(F)cccc3F)CC2)cc1 [Compound 21]
4. O=S(=O)(NCCCCNS(=O)(=O)c1c(F)cccc1F)c1ccc2c(c1)OCCO2 [Compound 34]
5. O=S(=O)(c1ccc(F)cc1)N1CCN(S(=O)(=O)c2ccc3c(c2)OCCO3)CC1 [Compound 6]
6. O=S(=O)(c1ccc2ccccc2c1)N1CCN(S(=O)(=O)c2c(F)cccc2F)CC1 [Compound 26]
7. C[C@H]1CN(S(=O)(=O)c2c(F)cccc2F)CCN1S(=O)(=O)c1ccc2c(c1)OCCO2 [Compound 45]

91.1
95.6
102
113
99.7
138
109

Below is a list of compounds. For each, state its recorded activation at 57 µM.
1. O=S(=O)(NCCCNS(=O)(=O)c1c(F)cccc1F)c1ccc2c(c1)OCCO2 [Compound 33]
2. Cn1c2cc(C#N)sc2c2cnn(Cc3ccccc3F)c(=O)c21 [Compound 82]
3. Cc1cc2c(s1)c1cnn(Cc3cccc(Cl)c3)c(=O)c1n2C [Compound 107]

1: 106; 2: 84.1; 3: 99.1

Below is a list of compounds. For each, state its recorded activation at 57 µM.
1. Cc1ccc(Cn2ncc3c4sc(C)cc4n(C)c3c2=O)cc1 [Compound 109]
2. O=S(=O)(c1ccc2c(c1)OCCO2)N1CCN(S(=O)(=O)c2cc(F)c(F)cc2F)CC1 [Compound 10]
3. O=S(=O)(c1ccc2c(c1)OCCO2)N1CCN(S(=O)(=O)c2ccccn2)CC1 [Compound 18]
4. O=S(=O)(c1ccc2c(c1)OCCCO2)N1CCN(S(=O)(=O)c2c(F)cccc2F)CC1 [Compound 23]
5. O=S(=O)(c1ccc(Cl)cc1)N1CCN(S(=O)(=O)c2ccc3c(c2)OCCO3)CC1 [Compound 5]

1. 84.1
2. 105
3. 103
4. 100
5. 99.6

Below is a list of compounds. For each, state its recorded activation at 57 µM.
1. O=S(=O)(NCC1CN(S(=O)(=O)c2ccc3c(c2)OCCO3)C1)c1c(F)cccc1F [Compound 44]
2. O=C1CN(S(=O)(=O)c2ccc3c(c2)OCCO3)CCN1S(=O)(=O)c1c(F)cccc1F [Compound 50]
3. O=S(=O)(c1ccc2c(c1)OCCO2)N1CCN(S(=O)(=O)c2ccc3c(c2)OCCO3)CC1 [Compound 2]
4. O=S(=O)(NC1CCN(S(=O)(=O)c2c(F)cccc2F)CC1)c1ccc2c(c1)OCCO2 [Compound 39]

[108, 96.9, 89.7, 101]
